The measurements presented in this section are drawn from patent US8227240B2.

Test system: chicken embryo fibroblasts (CEF's) tissue model
Procedure summary: Ring system: isometric force and dynamic stiffness of fibroblast populated matrices (FPM)
Format: cell-based
Condition set: serial additions; sigmoidal dependence; read-out: estimated half maximum concentration for reducing the force
pIC50: −log10 of the molar value.
Recorded metric: pIC50

• C/C1=C/C(=O)O[C@@H]2C[C@@H](CC[C@H](C)/C=C\CC1)O[C@@](O)([C@@H]1CSC(=O)N1)C2 = 7.28
